// reported pKd for each item listed
Target: HLA-B*40:01
Test: IEDB peptide-MHC binding, purified MHC/direct/fluorescence; filed as Kd, often an IC50 or EC50 that approximates it; bounds were set here for any values at or beyond the usual limits of such assays
Details: source organism: Escherichia coli O157:H7
pKd: −log10 of the molar value.
endpointLabel: pKd

QMRVRYYGL    ≤ 4.70
DISPTNIPL    ≤ 4.70
KPKLKVATL    ≤ 4.70
DPRDDLSGM    ≤ 4.70
ATISYRIKL    ≤ 4.70

###

Target: HLA-B*83:01
Test: IEDB peptide-MHC binding, purified MHC/competitive/fluorescence; filed as Kd, often an IC50 or EC50 that approximates it; bounds were set here for any values at or beyond the usual limits of such assays
Conditions: source organism: Campylobacter jejuni
pKd: −log10 of the molar value.
endpointLabel: pKd

YTKKYLLSF    ≤ 5.30
